ASSAY NAME: recombinant UMI read abundance after kanamycin selection (control-corrected) (log10(CPM+1)); higher = more efficient recombination; extreme values may be limits of the assay; sequences stand for … in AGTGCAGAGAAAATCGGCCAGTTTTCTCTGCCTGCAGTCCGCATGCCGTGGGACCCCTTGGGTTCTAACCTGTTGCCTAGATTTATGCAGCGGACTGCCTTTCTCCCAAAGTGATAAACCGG…AGGTTGGTTTCACT; site = the 11-nt donor
recombinant UMI read abundance (log10) vs 0.02: at or above is label 1, below is label 0.

Illustrative cases are given below, each with its answer.
CAAGTGACATGGACCGGTTTTCCCGGTAATCCGTATTTGGG (site CAAGTCACTCC) | label 0
AGGGAGACATGGACCGGTTTTCCCGGTAATCCGTATTTGCA (site AGGTAGACTTG) | label 1
CGGACCTCATGGACCGGTTTTCCCGGTAATCCGTATTTGCT (site CGGACCTCTAG) | label 1
TTAGCCGCATGGACCGGTTTTCCCGGTAATCCGTATTTGTG (site TTAGCTGCTCA) | label 0
GCAGTAACATGGACCGGTTTTCCCGGTAATCCGTATTTGCA (site ACAGTATCTTG) | label 1

Q: Is recombinant UMI read abundance (log10) at least 0.02? Consider TTGTGGCCATGGACCGGTTTTCCCGGTAATCCGTATTTGTG (site TTGTGGCCTCA)
Result: label 0

----------
ASSAY NAME: recombinant UMI read abundance after kanamycin selection (control-corrected) (log10(CPM+1)); higher = more efficient recombination; extreme values may be limits of the assay; sequences stand for … in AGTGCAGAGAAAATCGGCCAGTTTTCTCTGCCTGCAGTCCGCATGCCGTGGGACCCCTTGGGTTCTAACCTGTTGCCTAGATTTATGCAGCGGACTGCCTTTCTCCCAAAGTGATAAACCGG…AGGTTGGTTTCACT; site = the 11-nt donor
This section presents sequences with their documented recombinant UMI read abundance (log10) values.
Please reply with the value in numeric form only.

Q: Need recombinant UMI read abundance (log10) of TCCAATTCATGGACCGGTTTTCCCGGTAATCCGTATTTGCC (site TCCTATTCTGG) , thanks.
Result: 0

Q: Need recombinant UMI read abundance (log10) of TAATGAACATGGACCGGTTTTCCCGGTAATCCGTATTTGGG (site TAATGAACTCC) , thanks.
Result: 0.00333

----------
ASSAY NAME: recombinant UMI read abundance after kanamycin selection (control-corrected) (log10(CPM+1)); higher = more efficient recombination; extreme values may be limits of the assay; sequences stand for … in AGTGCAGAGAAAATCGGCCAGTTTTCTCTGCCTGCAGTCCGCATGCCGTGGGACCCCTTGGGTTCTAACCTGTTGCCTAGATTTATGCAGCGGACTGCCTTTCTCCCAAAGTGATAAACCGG…AGGTTGGTTTCACT; site = the 11-nt donor
This section presents sequences with their documented recombinant UMI read abundance (log10) values.
Please reply with the value in numeric form only.

Below, 2 sequences whose answers are already recorded.
AATCACGCATGGACCGGTTTTCCCGGTAATCCGTATTTGGG (site AAACACGCTCC) | 0.0181
CCAAATCCATGGACCGGTTTTCCCGGTAATCCGTATTTGTT (site CCAAATCCTAA) | 0

Please look at the following sequence next.
Q: Need recombinant UMI read abundance (log10) of GGCTACCCATGGACCGGTTTTCCCGGTAATCCGTATTTGTT (site GGCTACCCTAA) , thanks.
Result: 0.0101

----------
ASSAY NAME: recombinant UMI read abundance after kanamycin selection (control-corrected) (log10(CPM+1)); higher = more efficient recombination; extreme values may be limits of the assay; sequences stand for … in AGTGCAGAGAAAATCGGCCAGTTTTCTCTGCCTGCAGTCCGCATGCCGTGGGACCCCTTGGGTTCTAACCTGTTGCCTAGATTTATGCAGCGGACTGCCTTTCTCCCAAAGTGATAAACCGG…AGGTTGGTTTCACT; site = the 11-nt donor
This section presents sequences with their documented recombinant UMI read abundance (log10) values.
Please reply with the value in numeric form only.

Below, 8 sequences whose answers are already recorded.
TAAAGAGCATGGACCGGTTTTCCCGGTAATCCGTATTTGGG (site TAATGAGCTCC) | 0.00709
CGTTAAACATGGACCGGTTTTCCCGGTAATCCGTATTTGAG (site CGTTACACTCT) | 0
CTGCCACCATGGACCGGTTTTCCCGGTAATCCGTATTTGCT (site CTGCGACCTAG) | 0
TGAGTGGCATGGACCGGTTTTCCCGGTAATCCGTATTTGGT (site GGAGTGGCTAC) | 0.0161
TGTACACCATGGACCGGTTTTCCCGGTAATCCGTATTTGAC (site GGTACACCTGT) | 0
GTATGCACATGGACCGGTTTTCCCGGTAATCCGTATTTGTA (site GTATGCCCTTA) | 0.0248
CTCCCAACATGGACCGGTTTTCCCGGTAATCCGTATTTGAG (site CTCCCTACTCT) | 0.00578
CAACTTCCATGGACCGGTTTTCCCGGTAATCCGTATTTGTT (site CAACTTCCTAA) | 1.5

Q: Need recombinant UMI read abundance (log10) of AATTATACATGGACCGGTTTTCCCGGTAATCCGTATTTGGA (site AATTATGCTTC) , thanks.
Result: 0.476

Q: Need recombinant UMI read abundance (log10) of CACATGGCATGGACCGGTTTTCCCGGTAATCCGTATTTGGA (site CACTTGGCTTC) , thanks.
Result: 0.388

Q: Need recombinant UMI read abundance (log10) of ACACCATCATGGACCGGTTTTCCCGGTAATCCGTATTTGAG (site ACACCATCTCT) , thanks.
Result: 1.25

Q: Need recombinant UMI read abundance (log10) of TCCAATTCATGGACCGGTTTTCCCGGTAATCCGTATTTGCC (site TCCAATCCTGG) , thanks.
Result: 0

----------
ASSAY NAME: recombinant UMI read abundance after kanamycin selection (control-corrected) (log10(CPM+1)); higher = more efficient recombination; extreme values may be limits of the assay; sequences stand for … in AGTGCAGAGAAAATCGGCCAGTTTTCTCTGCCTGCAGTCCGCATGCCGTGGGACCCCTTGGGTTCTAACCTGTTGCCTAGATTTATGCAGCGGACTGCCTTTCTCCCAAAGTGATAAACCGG…AGGTTGGTTTCACT; site = the 11-nt donor
Note to self: class = bucket of recombinant UMI read abundance (log10), per 1: < 0.009; 2: ≥ 0.009 and < 2; 3: ≥ 2

Illustrative cases are given below, each with its answer.
GAAGACTCATGGACCGGTTTTCCCGGTAATCCGTATTTGTT (site GAAGACTCTAA) | 3
CACTCGGCATGGACCGGTTTTCCCGGTAATCCGTATTTGAT (site CACTCGGCTAT) | 3
TACGTGACATGGACCGGTTTTCCCGGTAATCCGTATTTGCT (site TACTTGACTAG) | 2

Q: Field: class (recombinant UMI read abundance (log10)) — entry: GTGCTACCATGGACCGGTTTTCCCGGTAATCCGTATTTGCT (site CTGCTACCTAG)
Result: 1

Q: Field: class (recombinant UMI read abundance (log10)) — entry: AGGATTCCATGGACCGGTTTTCCCGGTAATCCGTATTTGTT (site CGGAATCCTAA)
Result: 1

Q: Field: class (recombinant UMI read abundance (log10)) — entry: TATTCCCCATGGACCGGTTTTCCCGGTAATCCGTATTTGTA (site TTTTCCCCTTA)
Result: 2

Q: Field: class (recombinant UMI read abundance (log10)) — entry: GCGAAAGCATGGACCGGTTTTCCCGGTAATCCGTATTTGCT (site GCGAAACCTAG)
Result: 1

Q: Field: class (recombinant UMI read abundance (log10)) — entry: GAGAAACCATGGACCGGTTTTCCCGGTAATCCGTATTTGGT (site GACAAACCTAC)
Result: 1

Q: Field: class (recombinant UMI read abundance (log10)) — entry: AGGTAGACATGGACCGGTTTTCCCGGTAATCCGTATTTGCA (site AGGCAGACTTG)
Result: 3

Q: Field: class (recombinant UMI read abundance (log10)) — entry: GAATGCACATGGACCGGTTTTCCCGGTAATCCGTATTTGTA (site GAATGCACTTA)
Result: 2

Q: Field: class (recombinant UMI read abundance (log10)) — entry: TCTAAGGCATGGACCGGTTTTCCCGGTAATCCGTATTTGGT (site TCTAAGGCTAC)
Result: 2

----------
ASSAY NAME: recombinant barcode read abundance after kanamycin selection (control-corrected) (log10(CPM+1)); higher = more efficient recombination; sequences stand for … in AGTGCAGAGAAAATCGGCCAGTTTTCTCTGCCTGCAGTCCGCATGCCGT…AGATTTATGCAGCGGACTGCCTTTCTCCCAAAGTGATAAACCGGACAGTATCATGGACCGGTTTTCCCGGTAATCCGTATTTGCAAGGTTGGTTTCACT; site = the 11-nt target
recombinant barcode read abundance (log10) vs 0.2: at or above is satisfied, below is not satisfied.

GATCGAGCTTGGGTTCTAACCTGTTGCAG (site TGGACGACTAA) | not satisfied

Q: Is recombinant barcode read abundance (log10) at least 0.2? Consider GTAAGCTCTTGGGTTCTAACCTGTTGCCT (site CTAAGCTCTAG)
Result: satisfied

Q: Is recombinant barcode read abundance (log10) at least 0.2? Consider TGCTCTACTTGGGTTCTAACCTGTTGCTT (site TGATCTACTAA)
Result: not satisfied

Q: Is recombinant barcode read abundance (log10) at least 0.2? Consider TAAAAGCCTTGGGTTCTAACCTGTTGCCT (site TAAAAGGCTAG)
Result: not satisfied

Q: Is recombinant barcode read abundance (log10) at least 0.2? Consider AGCAGTGCTTGGGTTCTAACCTGTTGCCT (site AGCATTCCTAG)
Result: not satisfied

Q: Is recombinant barcode read abundance (log10) at least 0.2? Consider CAACGAGCTTGGGTTCTAACCTGTTGCCG (site CACCGAGCTCG)
Result: not satisfied

Q: Is recombinant barcode read abundance (log10) at least 0.2? Consider GGATTCACTTGGGTTCTAACCTGTTGCCA (site GGATGCACTTG)
Result: satisfied

Q: Is recombinant barcode read abundance (log10) at least 0.2? Consider AGAATAGCTTGGGTTCTAACCTGTTGCAG (site AGAATAGCTCT)
Result: satisfied

Q: Is recombinant barcode read abundance (log10) at least 0.2? Consider GTCTGTTCTTGGGTTCTAACCTGTTGCCT (site GTCTGTTCTAG)
Result: satisfied

Q: Is recombinant barcode read abundance (log10) at least 0.2? Consider CCAAGGGCTTGGGTTCTAACCTGTTGCAG (site CCAAGGGCTCG)
Result: satisfied

Q: Is recombinant barcode read abundance (log10) at least 0.2? Consider AGCTACCCTTGGGTTCTAACCTGTTGCTT (site AGCTACCCTAA)
Result: satisfied

Q: Is recombinant barcode read abundance (log10) at least 0.2? Consider AAGATATCTTGGGTTCTAACCTGTTGCCT (site ATGATATCTAG)
Result: not satisfied

Q: Is recombinant barcode read abundance (log10) at least 0.2? Consider CGTCACCCTTGGGTTCTAACCTGTTGCCT (site CGTCACCCTAG)
Result: not satisfied
